# Test system: HL-60(TB) leukemia
# assaySummary: NCI-60 one-dose screen, 48 h (100 = growth as untreated, 0 = no growth, -100 = all killed)
# experimentalSetup: 10 µM unless noted
# Method: Growth inhibition of the HL-60(TB) human tumor cell line is measured as a screen for anti-cancer activity. Cells are grown in 96 well plates and exposed to the test compound for 48 hours. Compounds are tested at a single concentration, which is 10^-5 M for most compounds. The reported endpoint is percent growth (GI% or GIPRCNT), where numbers from 0 - 100% represent growth inhibition, and numbers from -100% - 0 represent cell death. For example, a value of 40 represents 60% growth inhibition. […]
About 83,000 compounds went through this panel and 20% of them were active in at least one assay; those are over-represented in the sample as a whole.

>  <compound>
CCN(CC)CC(O)CNc1c2ccc([N+](=O)[O-])cc2nc2cc(OC)c(OC)cc12 (stereo unspecified)

>  <growth [%]>
-17.5

$$$$
>  <compound>
CCNC(=S)NN

>  <growth [%]>
100

$$$$
>  <compound>
COc1cnc2c(c1)C(=O)c1c-2n(CCCNCCO)c(=O)c2ccncc12

>  <growth [%]>
16.1

$$$$
>  <compound>
Cc1cccc2c3c(sc12)C(c1ccc(Cl)cc1)C(C#N)=C(/N=C/c1ccc(Cl)cc1)O3 (stereo unspecified)

>  <growth [%]>
-22

$$$$
>  <compound>
CC(=O)c1nc(Nc2ccc(C)cc2)sc1C

>  <growth [%]>
101

$$$$
>  <compound>
Cc1nc2cc(Nc3nc(N4CCOCC4)nc(N4CCN(C)CC4)n3)ccc2n1Cc1ccccc1

>  <growth [%]>
103

$$$$
>  <compound>
COc1ccc(Cc2nc3cc(OC)c(OC)cc3c(=O)[nH]2)cc1

>  <growth [%]>
16.4

$$$$
>  <compound>
Oc1c(Cl)cc(Cl)c2ccc(Cn3cc(-c4ccc(C(F)(F)F)cc4)nn3)nc12

>  <growth [%]>
-24.9

$$$$
>  <compound>
COc1ccc(-c2nnc(SCC(=O)c3ccc(Cl)cc3)o2)cc1

>  <growth [%]>
108

$$$$
>  <compound>
CCc1ccccc1-n1c(-c2ccc(Cl)cc2)cc(-c2ccc(Cl)cc2)c(C#N)c1=O

>  <growth [%]>
82.7

$$$$
>  <compound>
Cc1onc(-c2ccccc2)c1C(=O)N/N=C/c1cc(Cl)cc(Cl)c1O

>  <growth [%]>
15.7

$$$$
>  <compound>
N#CCCN(CCO)c1ccccc1

>  <growth [%]>
89.9

$$$$
>  <compound>
Cc1cccc(NC2=C(C#N)C(=O)NC3(CCCC3)S2)c1

>  <growth [%]>
89.7

$$$$
>  <compound>
Cc1cc(C)c(CC(=O)O)c(C)c1

>  <growth [%]>
97.3

$$$$
>  <compound>
Nc1c(C(=O)Nc2ccccn2)sc2nc3c(cc12)CCCCCC3

>  <growth [%]>
-22.2

$$$$
>  <compound>
CCOC(=O)/C=C1\S/C(=N\Nc2cc(=O)[nH]c3ccc(Cl)cc23)N(c2ccccc2)C1=O

>  <growth [%]>
0.175

$$$$
>  <compound>
COc1ccc([N+](=O)[O-])c(C(=O)O)c1

>  <growth [%]>
111

$$$$
>  <compound>
COc1cc(-c2cc(-c3ccc(N(C)C)cc3)nc(N3CCC(O)CC3)c2C#N)cc(OC)c1OC

>  <growth [%]>
-23.6

$$$$
>  <compound>
O=C1Nc2ccccc2/C1=C/c1cn(C(=O)c2c(Cl)cccc2Cl)c2ccccc12

>  <growth [%]>
72.1

$$$$
>  <compound>
COc1ccc2c(O)c(/C=C3\N=Nc4ncccc43)oc2c1C[C@H]1CCNC[C@H]1F

>  <growth [%]>
-45.4

$$$$
>  <compound>
COc1cnc2c(c1)C(=O)c1c-2n(CCCN2CCN(C)CC2)c(=O)c2cc([N+](=O)[O-])ccc12

>  <growth [%]>
-54

$$$$
>  <compound>
N#C/C(=C\c1ccc(Br)cc1)n1nnc2ccc(F)cc21

>  <growth [%]>
-23.2

$$$$
>  <compound>
Cc1ccc(-c2csc(NC(=O)CN3CCN(c4cc5c(cc4F)c(=O)c(C(=O)O)cn5C4CC4)CC3)n2)cc1

>  <growth [%]>
-56.3

$$$$
>  <compound>
COc1ccc(-c2nsc3c2NC(=O)CC3c2ccc(F)cc2)cc1 (stereo unspecified)

>  <growth [%]>
7.88

$$$$
>  <compound>
CSc1ccc(SC2c3ccc(C)cc3Oc3nc(N)c(C#N)c(N)c32)cc1 (stereo unspecified)

>  <growth [%]>
-52

$$$$
>  <compound>
COc1ccccc1S(=O)(=O)Nc1ccc2c(c1)CN(C)C(=O)N2

>  <growth [%]>
21.9

$$$$
>  <compound>
C[C@]12CC[C@@H]3c4ccc(O)cc4C[C@@H](O)[C@H]3[C@@H]1CC[C@@H]2O

>  <growth [%]>
101

$$$$
>  <compound>
Clc1ccc2c(c1)C(N1CCNCC1)=Nc1ccccc1O2

>  <growth [%]>
50.7

$$$$
>  <compound>
O=C1Nc2ccccc2/C1=C/c1cccn1CCCCn1c2ccccc2c(=O)c2ccccc21

>  <growth [%]>
60.2

$$$$
>  <compound>
O=C(NCc1cccnc1)c1ccc([N+](=O)[O-])o1

>  <growth [%]>
9.68

$$$$
>  <compound>
O=c1oc2c(cnc3ccccc32)cc1-c1ccsc1

>  <growth [%]>
96.7

$$$$
>  <compound>
O=C(CCC(=O)N/N=C/c1ccccc1O)N/N=C/c1ccccc1O

>  <growth [%]>
7.25

$$$$
>  <compound>
O=C(Nc1cccc(-n2cc(-c3ccncc3)c(-c3ccc(O)c(Cl)c3)n2)c1)Nc1ccc(Cl)c(Cl)c1

>  <growth [%]>
-13.2

$$$$
>  <compound>
CC(C)[N+](C)(C)CC(O)COc1cccc2ccccc12 (stereo unspecified)

>  <growth [%]>
126

$$$$
>  <compound>
Cc1n(Cc2ccc3ccccc3n2)cc[n+]1Cc1ccc2ccccc2c1

>  <growth [%]>
-32.9

$$$$
>  <compound>
CCOc1ccc2sc(NS(=O)(=O)c3ccc(N)cc3)nc2c1

>  <growth [%]>
94.7

$$$$
>  <compound>
Cc1nn(-c2ccccc2)c(N2CCOCC2)c1/C=N/N=c1\sc2ccccc2n1C

>  <growth [%]>
67.2

$$$$
>  <compound>
CN1CCN(Cc2ccc(NC(=O)c3cncc(C#Cc4cnc(N)c5ccccc45)c3)cc2C(F)(F)F)CC1

>  <growth [%]>
-46.3

$$$$
>  <compound>
OC1CC2c3ccccc3C1c1ccccc12 (stereo unspecified)

>  <growth [%]>
109

$$$$
>  <compound>
CC[C@@H](C(=O)[C@@H](C)[C@@H](O)[C@H](C)[C@@H]1O[C@@H]([C@@H](CC)C(=O)NCCc2ccc(F)cc2)CC[C@@H]1C)C1O[C@]2(C=CC(=O)[C@]3(CC[C@@](C)([C@H]4CC[C@](O)(CC)[C@H](C)O4)O3)O2)[C@H](C)C[C@@H]1C (stereo partly specified)

>  <growth [%]>
6.93

$$$$
>  <compound>
COc1cc(-n2nc(C(=O)Nc3ccc(C(=O)O)cc3)nc2-c2ccccc2)cc(OC)c1OC

>  <growth [%]>
103

$$$$

Sourced from PubChem BioAssay (NCI)
